Just for reference, ChEMBL document CHEMBL5038625 is where these values come from.

Tested on: K562
Assay: Antiproliferative activity against human K562 cells assessed as cell growth inhibition at 10 uM incubated for 24 hrs by sulforhodamine B assay
Type: functional
Settings: read-out: GI
Outcome: Condition met for inhibition of growth at 10 µM of at least 30%; Condition not met for anything lower.

Some solved cases for reference:
COc1ccc(C(=O)CSc2nc(Nc3ccc(S(N)(=O)=O)cc3)c(C#N)c(C(C)C)n2)cc1: Condition not met
COc1ccc(OC)c(-c2nc(SCC(=O)c3ccccc3)nc(Nc3ccc(S(N)(=O)=O)cc3)c2C#N)c1: Condition not met
CC(C)c1nc(SCC(=O)c2ccccc2)nc(Nc2cccc(S(N)(=O)=O)c2)c1C#N: Condition not met
COc1ccc(C(=O)CSc2nc(Nc3ccc(S(N)(=O)=O)cc3)cc(-c3ccccc3)n2)cc1: Condition met
Cc1ccc(-c2nc(SCC(=O)c3ccc(Br)cc3)nc(Nc3cccc(S(N)(=O)=O)c3)c2C#N)cc1: Condition not met
COc1ccc(OC)c(-c2nc(SCC(=O)c3ccc(Br)cc3)nc(Nc3ccc(S(N)(=O)=O)cc3)c2C#N)c1: Condition met

Exercise: hey, is inhibition of growth at 10 µM for this one >= 30%? COc1ccc(C(=O)CSc2nc(Nc3cccc(S(N)(=O)=O)c3)c(C#N)c(C(C)C)n2)cc1
Solution: Condition not met

----------
Target: UniProt Q16790
Field: label. Allowed values: yes (Ki < 0.1 µM) or no (Ki >= 0.1 µM).

Exercise: Given the entry Cc1ccc(-c2nc(SCC(=O)c3ccc(Br)cc3)nc(Nc3cccc(S(N)(=O)=O)c3)c2C#N)cc1 , would its reported Ki be below 0.1 µM?
Solution: yes

Exercise: Given the entry COc1ccc(C(=O)CSc2nc(Nc3ccc(S(N)(=O)=O)cc3)cc(-c3ccccc3)n2)cc1 , would its reported Ki be below 0.1 µM?
Solution: yes

Exercise: Given the entry NS(=O)(=O)c1cccc(Nc2cc(-c3ccccc3)nc(SCC(=O)c3ccc(Br)cc3)n2)c1 , would its reported Ki be below 0.1 µM?
Solution: no

----------
Consider the following compounds and their measured inhibition of growth at 10 µM readings.
System: OVCAR-3
Assay: Antiproliferative activity against human OVCAR-3 cells assessed as cell growth inhibition at 10 uM incubated for 24 hrs by sulforhodamine B assay
Assay type: functional
Settings: read-out: GI
Just the number please, in %, no unit attached.

Recorded results for 3 compounds are shown here.
Cc1ccc(-c2nc(SCC(=O)c3ccccc3)nc(Nc3ccc(S(N)(=O)=O)cc3)c2C#N)cc1: 96
CC(C)c1nc(SCC(=O)c2ccc(Br)cc2)nc(Nc2cccc(S(N)(=O)=O)c2)c1C#N: 6.91
COc1ccc(OC)c(-c2nc(SCC(=O)c3ccc(Br)cc3)nc(Nc3cccc(S(N)(=O)=O)c3)c2C#N)c1: 22.4

Kindly note the recorded inhibition of growth at 10 µM for COc1ccc(OC)c(-c2nc(SCC(=O)c3ccc(Br)cc3)nc(Nc3ccc(S(N)(=O)=O)cc3)c2C#N)c1 , which is 49.4

----------
Test system: HL-60
Assay: Antiproliferative activity against human HL-60 cells assessed as cell growth inhibition at 10 uM incubated for 24 hrs by sulforhodamine B assay
Type: functional
Conditions: read-out: GI
Consider the following compounds and their measured inhibition of growth at 10 µM readings.

COc1ccc(OC)c(-c2nc(SCC(=O)c3ccccc3)nc(Nc3ccc(S(N)(=O)=O)cc3)c2C#N)c1: 8.52%
COc1ccc(C(=O)CSc2nc(Nc3cccc(S(N)(=O)=O)c3)c(C#N)c(C(C)C)n2)cc1: 6.4%
CC(C)c1nc(SCC(=O)c2ccc(Br)cc2)nc(Nc2ccc(S(N)(=O)=O)cc2)c1C#N: 24.1%

Kindly note the recorded inhibition of growth at 10 µM for Cc1ccc(-c2nc(SCC(=O)c3ccc(Br)cc3)nc(Nc3ccc(S(N)(=O)=O)cc3)c2C#N)cc1 , which is < 5%

----------
Tested on: HCT-116
Test: Antiproliferative activity against human HCT-116 cells assessed as reduction in cell viability incubated for 24 hrs by sulforhodamine B assay
Conditions: HCT-116, 24 h
measure: IC50 (nM)
Just the number please, in nM, no unit attached.

Kindly note the recorded IC50 for COc1ccc(OC)c(-c2nc(SCC(=O)c3ccc(Br)cc3)nc(Nc3ccc(S(N)(=O)=O)cc3)c2C#N)c1 , which is 2500

----------
Test system: MCF7
Experiment: Antiproliferative activity against human MCF7 cells assessed as reduction in cell viability incubated for 24 hrs by sulforhodamine B assay
Assay type: functional, cell-based
Settings: MCF7, 24 h
Consider the following compounds and their measured IC50 readings.
Just the number please, in µM, no unit attached.

IC50 on MCF7 for COc1ccc(OC)c(-c2nc(SCC(=O)c3ccc(Br)cc3)nc(Nc3ccc(S(N)(=O)=O)cc3)c2C#N)c1 is 2.5

IC50 on MCF7 for CC(C)c1nc(SCC(=O)c2ccccc2)nc(Nc2ccc(S(N)(=O)=O)cc2)c1C#N is 47.6

IC50 on MCF7 for COc1ccc(C(=O)CSc2nc(Nc3ccc(S(N)(=O)=O)cc3)c(C#N)c(C(C)C)n2)cc1 is 19.8

IC50 on MCF7 for O=c1[nH]cc(F)c(=O)[nH]1 is 2.46

IC50 on MCF7 for COc1ccc(C(=O)CSc2nc(Nc3cccc(S(N)(=O)=O)c3)cc(-c3ccccc3)n2)cc1 is 30.9

IC50 on MCF7 for NS(=O)(=O)c1ccc(Nc2cc(-c3ccccc3)nc(SCC(=O)c3ccccc3)n2)cc1 is 44.5

----------
System: HCT-116
Test: Antiproliferative activity against human HCT-116 cells assessed as cell growth inhibition at 10 uM incubated for 24 hrs by sulforhodamine B assay
Format: functional
Details: read-out: GI
Consider the following compounds and their measured inhibition of growth at 10 µM readings.
Just the number please, in %, no unit attached.

Recorded results for 5 compounds are shown here.
NS(=O)(=O)c1ccc(Nc2cc(-c3ccccc3)nc(SCC(=O)c3ccc(Br)cc3)n2)cc1: 8.87
COc1ccc(OC)c(-c2nc(SCC(=O)c3ccccc3)nc(Nc3ccc(S(N)(=O)=O)cc3)c2C#N)c1: 7.67
CC(C)c1nc(SCC(=O)c2ccc(Br)cc2)nc(Nc2ccc(S(N)(=O)=O)cc2)c1C#N: 6.95
Cc1ccc(-c2nc(SCC(=O)c3ccccc3)nc(Nc3ccc(S(N)(=O)=O)cc3)c2C#N)cc1: 64.1
Cc1ccc(-c2nc(SCC(=O)c3ccc(Br)cc3)nc(Nc3cccc(S(N)(=O)=O)c3)c2C#N)cc1: 8.06

Kindly note the recorded inhibition of growth at 10 µM for COc1ccc(OC)c(-c2nc(SCC(=O)c3ccc(Br)cc3)nc(Nc3ccc(S(N)(=O)=O)cc3)c2C#N)c1 , which is 84.6

Kindly note the recorded inhibition of growth at 10 µM for CC(C)c1nc(SCC(=O)c2ccccc2)nc(Nc2cccc(S(N)(=O)=O)c2)c1C#N , which is 5.73

Kindly note the recorded inhibition of growth at 10 µM for COc1ccc(OC)c(-c2nc(SCC(=O)c3ccc(Br)cc3)nc(Nc3cccc(S(N)(=O)=O)c3)c2C#N)c1 , which is 27.9

----------
// endpoint Ki / system Carbonic anhydrase 1 (Homo sapiens, UniProt P00915)

Cc1ccc(-c2nc(SCC(=O)c3ccccc3)nc(Nc3cccc(S(N)(=O)=O)c3)c2C#N)cc1: > 20 µM

Field: next compound
Kindly note the recorded Ki for COc1ccc(C(=O)CSc2nc(Nc3ccc(S(N)(=O)=O)cc3)c(C#N)c(-c3cc(OC)ccc3OC)n2)cc1 , which is > 20 µM

----------
Tested on: UACC-62
Assay: Antiproliferative activity against human UACC-62 cells assessed as cell growth inhibition at 10 uM incubated for 24 hrs by sulforhodamine B assay
Type: functional
Details: read-out: GI
Outcome: Met for inhibition of growth at 10 µM of at least 10%; Not met for anything lower.

Some solved cases for reference:
COc1ccc(C(=O)CSc2nc(Nc3ccc(S(N)(=O)=O)cc3)cc(-c3ccccc3)n2)cc1: Met
COc1ccc(C(=O)CSc2nc(Nc3cccc(S(N)(=O)=O)c3)cc(-c3ccccc3)n2)cc1: Not met
COc1ccc(C(=O)CSc2nc(Nc3cccc(S(N)(=O)=O)c3)c(C#N)c(C(C)C)n2)cc1: Met
COc1ccc(OC)c(-c2nc(SCC(=O)c3ccccc3)nc(Nc3ccc(S(N)(=O)=O)cc3)c2C#N)c1: Not met
COc1ccc(C(=O)CSc2nc(Nc3ccc(S(N)(=O)=O)cc3)c(C#N)c(C(C)C)n2)cc1: Not met
CC(C)c1nc(SCC(=O)c2ccc(Br)cc2)nc(Nc2ccc(S(N)(=O)=O)cc2)c1C#N: Met

With those in mind, consider the next molecule.
Exercise: hey, is inhibition of growth at 10 µM for this one >= 10%? CC(C)c1nc(SCC(=O)c2ccc(Br)cc2)nc(Nc2cccc(S(N)(=O)=O)c2)c1C#N
Solution: Not met

----------
Test system: SR
Assay: Antiproliferative activity against human SR cells assessed as cell growth inhibition at 10 uM incubated for 24 hrs by sulforhodamine B assay
Format: functional
Conditions: read-out: GI
measure: inhibition of growth at 10 µM (%)
Just the number please, in %, no unit attached.

Recorded results for 7 molecules are shown here.
Cc1ccc(-c2nc(SCC(=O)c3ccc(Br)cc3)nc(Nc3cccc(S(N)(=O)=O)c3)c2C#N)cc1: 11.3
NS(=O)(=O)c1ccc(Nc2cc(-c3ccccc3)nc(SCC(=O)c3ccc(Br)cc3)n2)cc1: 15.7
Cc1ccc(-c2nc(SCC(=O)c3ccccc3)nc(Nc3cccc(S(N)(=O)=O)c3)c2C#N)cc1: 7.6
CC(C)c1nc(SCC(=O)c2ccccc2)nc(Nc2cccc(S(N)(=O)=O)c2)c1C#N: 19
COc1ccc(C(=O)CSc2nc(Nc3cccc(S(N)(=O)=O)c3)cc(-c3ccccc3)n2)cc1: 23.7
COc1ccc(OC)c(-c2nc(SCC(=O)c3ccccc3)nc(Nc3ccc(S(N)(=O)=O)cc3)c2C#N)c1: 22.7
Cc1ccc(-c2nc(SCC(=O)c3ccccc3)nc(Nc3ccc(S(N)(=O)=O)cc3)c2C#N)cc1: 43.1

Field: next molecule
Kindly note the recorded inhibition of growth at 10 µM for COc1ccc(OC)c(-c2nc(SCC(=O)c3ccc(Br)cc3)nc(Nc3ccc(S(N)(=O)=O)cc3)c2C#N)c1 , which is 86.1
